Test system: K4 kissing-loop RNA reporter;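 also: bound reporter read as fluorescence of individual clusters on recovered sequencing chips by microscopy, with normalized cluster intensities fitted with a binding model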
Assay: apparent KD of K4 kissing-loop reporter; higher = weaker reporter binding
Conditions: Eterna round: R107; input ligand: FMN 200 uM
// label = true (1) if apparent KD of K4 kissing-loop reporter is not less than 200 nM, otherwise false (0)

polymer.sequence: UGAUACCAGACGGCCGCCACUCCCGUAAGUCAAAGACUUACGAAGAGGGUUUUUCAGUGAUGUUGGAGGACCGGGUCUGGUAUCU [FiskerMod 17 - Jieux - Exclusion - Tryptophan B]
assigned.label: true (1)
--
polymer.sequence: GCCUAGCAGCGAAGGAGCGCCAGGAGAAGAAAUGGAGAGAGUUGAGUGAUGUUCAAAUGGUGGCAGGUAGGUCGCGCUGCUAGGC [#08 K4 Arginine B Same State]
assigned.label: true (1)
--
polymer.sequence: AAGCCAGAGAUUGCUGCGGGUUCCAGAGAUACCAGCCGUAUUGAAGGCCCUUGGCAGCUCGAGUGAUGUUCGAGCCGUCUCUAGC [Bisore]
assigned.label: false (0)

Here is another sequence to look at.
Input: Textbook exercise: given the entry GCGUCUGUCGGAAGGAGCGCACUAUGGAGUGAUGUUCCAUGACCGCACAGCUUGCGGUCAGUGCAGGUAGGUCGCCGAUAGCGUU [Diestera] , state whether its apparent KD of K4 kissing-loop reporter is greater than or equal to 200 nM.
Output: false (0)

Entry source: the supplement of paper PMC9170038
